assay details: refractive index (Na D-line) (dimensionless); xn = mol fraction of the nth substance listed
run parameters: 298.15 K; 101.3 kPa; Liquid; Standard Abbe refractometry; x2 = 0.4
± gives the expanded uncertainty stated by the source.

- compound: "CC(C)CCO [3-methylbutan-1-ol] + C[S+](C)[O-]"
  refractive index: "1.4227 ± 0.0011"
- compound: "CC(C)CCO [3-methylbutan-1-ol] + CCC(C)=O"
  refractive index: "1.3948 ± 0.0011"
- compound: "CC(C)CCO [3-methylbutan-1-ol] + CC(C)=O"
  refractive index: "1.3893 ± 0.0011"
- compound: "CCCCCO [pentan-1-ol] + C[S+](C)[O-]"
  refractive index: "1.427 ± 0.0011"

* * *

assay details: relative permittivity at various frequencies (dimensionless); xn = mol fraction of the nth substance listed
run parameters: 298.15 K; 101.3 kPa; Liquid; Frequency=0.01 MHz; Coaxial cylinder capacitor; x2 = 0.2
Readings of relative permittivity for the listed compounds

- compound: "CC(C)CCO [3-methylbutan-1-ol] + C[S+](C)[O-]"
  relative permittivity: 17.56
- compound: "CC(C)CCO [3-methylbutan-1-ol] + CC(C)=O"
  relative permittivity: 14.62
- compound: "CC(C)CCO [3-methylbutan-1-ol] + CCC(C)=O"
  relative permittivity: 14.38
- compound: "CCCCCO [pentan-1-ol] + CC(C)=O"
  relative permittivity: 14.91

* * *

Each entry below carries its reported relative permittivity.
assay details: relative permittivity at various frequencies (dimensionless); xn = mol fraction of the nth substance listed
run parameters: 298.15 K; 101.3 kPa; Liquid; Frequency=0.01 MHz; Coaxial cylinder capacitor; x2 = 0.7
property measured: relative permittivity

- compound: "CC(C)CCO [3-methylbutan-1-ol] + C[S+](C)[O-]"
  meas value: 32.76
- compound: "CC(C)CCO [3-methylbutan-1-ol] + CC(C)=O"
  meas value: 16.95
- compound: "CCCCCO [pentan-1-ol] + C[S+](C)[O-]"
  meas value: 33.14
- compound: "CC(C)CCO [3-methylbutan-1-ol] + CCC(C)=O"
  meas value: 15.7

* * *

assay details: relative permittivity at various frequencies (dimensionless); xn = mol fraction of the nth substance listed
run parameters: 298.15 K; 101.3 kPa; Liquid; Frequency=0.01 MHz; Coaxial cylinder capacitor; x2 = 0.5
Documented relative permittivity across a set of compounds

- compound: "CC(C)CCO [3-methylbutan-1-ol] + C[S+](C)[O-]"
  relative permittivity: 25.51
- compound: "CC(C)CCO [3-methylbutan-1-ol] + CC(C)=O"
  relative permittivity: 15.44
- compound: "CCCCCO [pentan-1-ol] + C[S+](C)[O-]"
  relative permittivity: 25.94
- compound: "CCCCCO [pentan-1-ol] + CC(C)=O"
  relative permittivity: 15.73

* * *

assay details: refractive index (Na D-line) (dimensionless); xn = mol fraction of the nth substance listed
run parameters: 298.15 K; 101.3 kPa; Liquid; Standard Abbe refractometry; x2 = 0.8
Numbers after ± are expanded uncertainties.
Listed below: refractive index values for each entry.

- molecule: "CCCCCO [pentan-1-ol] + C[S+](C)[O-]"
  refractive index: "1.4573 ± 0.0011"
- molecule: "CC(C)CCO [3-methylbutan-1-ol] + CC(C)=O"
  refractive index: "1.3701 ± 0.001"
- molecule: "CCCCCO [pentan-1-ol] + CC(C)=O"
  refractive index: "1.3706 ± 0.0011"
